The measured values listed here are drawn from the RNAGym collection of RNA variant scans (doi:10.1073/pnas.2313332121).

B1: TPR t1 (parent)
chain: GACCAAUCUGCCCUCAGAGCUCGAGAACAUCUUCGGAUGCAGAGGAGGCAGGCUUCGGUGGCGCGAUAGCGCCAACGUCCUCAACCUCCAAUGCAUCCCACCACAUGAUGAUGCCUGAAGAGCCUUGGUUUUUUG

- Variants of: B1
- assay explanation: polymerase ribozyme fitness, log enrichment relative to wild type (log ratio); higher = more active; in vitro selection for triplet polymerase activity
// polymerase ribozyme fitness (log ratio) lookup, one value per entry

| variant designation | polymerase ribozyme fitness (log ratio) |
| --- | --- |
| U32C G48U C56A G71U U112G | -4.24 |
| G19A U78C C124A U129C | -1.77 |
| G47C G48A | -2.94 |
| U112A U130G | -0.266 |
| A2U C11G | 0.322 |
| U9G C62G G120C | 0.877 |
| C12U A46C C53G G71C A84C A95C | -2.46 |
| C8G C40G G71U U81G C82U | -0.811 |
| G39U A84C G122A C123A C124A | 0.979 |
| C4A A91U | -3.65 |
| A24G C82G A84U U106C | -2.06 |
| C12G C64U | 0.291 |
| U96G C102A G127C | -3.73 |
| G60A A84C | -0.0134 |
| C62A | -0.872 |
| A41U G113A C114U C115A G122U | -5.49 |
| G19A G63A | -3.09 |
| U9C C15A G45C G57C U59A G120A | 0.743 |
| G52C G61A C62U C85U U96G G117A | -4.79 |
| C13G G110A | -1.87 |
| G57A C73U U78A C99U G128C | -6.66 |
| C31G U112A | -5.33 |
| U7G C73A U92A | -2.35 |
| C13A C15U G44A C49U C73U C89A | -4.76 |
| G61C U81A C124G U132C | -2.36 |
| A50C C70U | -2.04 |
| C40G U59A C72U G110C G117A A119C U129G U133G | -7.24 |
| A2C U59G | -1.54 |
| C11U A83C | -0.558 |
| C13U G120C | 1.89 |
| A43U C56A C115U | -2.52 |
| G25A G63C | -6.68 |
| C22G G52C C79U | -4.14 |
| U9A U14G A41C G42U G60U | -0.928 |
| G71A G127A | -2.33 |
| G61U U125G | -0.883 |
| G48C U87A | -1.01 |
| U21C U54A C64A U78C G93A A111C | -6.03 |
| G42C G60A G120U | -2.21 |
| G57A C123U | -0.636 |
| A5U U7A C15A G44A C56A G60A | -3.35 |
| G36C G69A G71A U81G C88A G93C C99A C123U | -6.5 |
| A5U C13G C72A C73U U106C | -3.49 |
| G10C C85U | -1.64 |
| U78A C97A | -4.8 |
| G25A C70A | -6.74 |
